Provenance of the data: patent US20220389097A1

Biological target: T1, cynomolgus TREM2-Fc (cynomolgus monkey, UniProt A0A2K5UY34 49-204)
T1 construct: also called cyno TREM2; not shown: Fc part
T1 sequence: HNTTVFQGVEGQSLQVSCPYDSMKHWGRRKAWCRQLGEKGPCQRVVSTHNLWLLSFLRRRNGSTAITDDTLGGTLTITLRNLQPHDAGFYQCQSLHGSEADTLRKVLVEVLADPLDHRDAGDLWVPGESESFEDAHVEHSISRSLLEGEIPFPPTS
Assay: SPR (Biacore T200), 37 C; TREM2-Fc on anti-human IgG1 Fc chip, Fab in solution
Provide the reported pKd of each item.
As a rule, pKd stands for the negative log10 of the concentration, concentration in M.

Need pKd, item 3.10C2 Fab (Fab, V domains shown, also called 3.10C2 (3.10C2); Rat3.10C2) VH: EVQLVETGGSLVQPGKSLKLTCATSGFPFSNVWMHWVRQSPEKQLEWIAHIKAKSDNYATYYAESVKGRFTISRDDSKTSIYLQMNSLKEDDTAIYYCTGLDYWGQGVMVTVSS VL: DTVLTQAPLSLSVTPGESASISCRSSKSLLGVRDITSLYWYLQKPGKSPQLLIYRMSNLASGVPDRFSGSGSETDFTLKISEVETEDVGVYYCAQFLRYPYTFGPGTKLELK
9.66

What would you report for Para.09 Fab with the 3.18E5 light chain (Fab, V domains shown, also called Para.09 (3.18E5)) VH: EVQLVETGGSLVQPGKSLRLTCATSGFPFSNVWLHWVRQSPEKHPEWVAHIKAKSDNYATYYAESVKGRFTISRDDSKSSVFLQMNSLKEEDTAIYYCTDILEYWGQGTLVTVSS VL: DTVLTQAPLSVSVTPGESASISCRSNKSLLGIRDITSLYWYLQKPGKSPQLLIYRMSNLASGVPDRFSGSGSETDFTLKISEVETEDVGVYYCAQFLRYPYTFGPGTKLELK ?
11.62

Continue with Para.09 Fab with the 3.10C2 light chain (Fab, V domains shown, also called Para.09 (3.10C2)) VH: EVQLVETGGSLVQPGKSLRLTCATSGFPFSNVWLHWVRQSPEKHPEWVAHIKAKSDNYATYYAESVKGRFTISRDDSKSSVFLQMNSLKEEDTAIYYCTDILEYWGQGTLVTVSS VL: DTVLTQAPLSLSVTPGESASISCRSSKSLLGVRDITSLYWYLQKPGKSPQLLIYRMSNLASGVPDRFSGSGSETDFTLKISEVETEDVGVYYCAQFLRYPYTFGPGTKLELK
11.80

# repeat for Para.09 Fab with the 3.27H7 light chain (Fab, V domains shown, Fab fragment; also called Para.09 (3.27H7); Para.09-L27H7) VH: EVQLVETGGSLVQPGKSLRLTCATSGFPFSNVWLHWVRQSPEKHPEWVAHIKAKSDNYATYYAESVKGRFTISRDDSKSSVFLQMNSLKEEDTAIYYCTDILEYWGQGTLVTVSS VL: DVVLTQAPLSVSVTPGESASISCRSSRSLLTSKGITSLYWYLQKPGMSPHLLIYRMSNLASGIPDRFSGSGSETDFTLKISEVEPEDVGVYYCAQFLVYPYTFGAGTKLELK
11.60
